- Assay Procedure: Cytotoxicity, cell growth (CC50) in HEL cells
- Format: cell-based
- Condition: human, concentration reducing cell growth by 50%
Quantity Name: CC50

Looking for the measured CC50 of O=c1[nH]c(=O)n([C@H]2C[C@H](O)[C@@H](CO)O2)cc1/C=C/Br [Brivudin, reference compound] , can you help?
> 300 µM

###

- System: human cervix carcinoma cells (HeLa)
- Assay Procedure: Cytostatic activity, HeLa cell proliferation
- Format: cell-based
- Condition: 72 h, read-out: IC50 HeLa
Task for the reader: assign each of the following compounds its reported IC50.

Looking for the measured IC50 of CCOP(=O)(COCCn1cc(CN2C(=O)c3cccc4cccc(c34)C2=O)nn1)OCC [Compound 14g] , can you help?
215 µM

Entry CCOP(=O)(CCCCn1cc(CN2C(=O)c3cccc4cc(N)cc(c34)C2=O)nn1)OCC [Compound 17d] please
116 µM

Entry CCOP(=O)(CCn1cc(CN2C(=O)c3cccc4cc([N+](=O)[O-])cc(c34)C2=O)nn1)OCC [Compound 16b] please
54 µM

Entry CCOP(=O)(CC(O)Cn1cc(CN2C(=O)c3cccc4cc([N+](=O)[O-])cc(c34)C2=O)nn1)OCC (centres unmarked) [Compound 16f] please
42 µM

Entry CCOP(=O)(CC(O)Cn1cc(CN2C(=O)c3cccc4c(Br)ccc(c34)C2=O)nn1)OCC (centres unmarked) [Compound 15f] please
87 µM
